# Experimental System: PI3Kδ (Homo sapiens (Human), UniProt O00329)
# Sequence (O00329 whole entry): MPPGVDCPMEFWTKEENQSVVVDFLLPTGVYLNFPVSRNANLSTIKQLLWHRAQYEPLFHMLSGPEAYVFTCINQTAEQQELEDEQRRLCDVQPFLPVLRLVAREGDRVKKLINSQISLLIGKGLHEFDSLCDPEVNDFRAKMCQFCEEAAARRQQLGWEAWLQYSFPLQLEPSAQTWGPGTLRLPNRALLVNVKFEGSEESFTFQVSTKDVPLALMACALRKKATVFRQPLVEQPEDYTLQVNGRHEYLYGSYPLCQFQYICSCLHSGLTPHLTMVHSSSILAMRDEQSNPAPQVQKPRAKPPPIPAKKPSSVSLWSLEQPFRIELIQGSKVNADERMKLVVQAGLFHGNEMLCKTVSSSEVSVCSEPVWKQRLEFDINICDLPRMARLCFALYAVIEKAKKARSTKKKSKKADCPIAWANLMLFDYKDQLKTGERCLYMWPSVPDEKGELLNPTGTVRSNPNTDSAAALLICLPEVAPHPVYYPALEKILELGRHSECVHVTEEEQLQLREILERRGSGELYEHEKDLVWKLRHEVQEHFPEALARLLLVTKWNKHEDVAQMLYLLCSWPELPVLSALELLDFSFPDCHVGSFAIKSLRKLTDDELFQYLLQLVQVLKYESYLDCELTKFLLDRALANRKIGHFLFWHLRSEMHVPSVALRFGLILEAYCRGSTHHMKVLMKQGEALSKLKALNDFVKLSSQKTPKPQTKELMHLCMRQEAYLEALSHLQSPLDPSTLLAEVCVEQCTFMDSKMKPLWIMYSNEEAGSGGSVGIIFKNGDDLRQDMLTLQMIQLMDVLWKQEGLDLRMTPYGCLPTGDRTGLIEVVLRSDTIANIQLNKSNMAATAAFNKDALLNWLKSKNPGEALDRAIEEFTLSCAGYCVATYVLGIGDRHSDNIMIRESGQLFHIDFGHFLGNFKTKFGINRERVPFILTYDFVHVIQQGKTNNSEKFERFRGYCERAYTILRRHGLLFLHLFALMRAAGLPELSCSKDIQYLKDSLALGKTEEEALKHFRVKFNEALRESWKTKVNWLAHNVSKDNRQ
# Sequence (P27986 whole entry partner): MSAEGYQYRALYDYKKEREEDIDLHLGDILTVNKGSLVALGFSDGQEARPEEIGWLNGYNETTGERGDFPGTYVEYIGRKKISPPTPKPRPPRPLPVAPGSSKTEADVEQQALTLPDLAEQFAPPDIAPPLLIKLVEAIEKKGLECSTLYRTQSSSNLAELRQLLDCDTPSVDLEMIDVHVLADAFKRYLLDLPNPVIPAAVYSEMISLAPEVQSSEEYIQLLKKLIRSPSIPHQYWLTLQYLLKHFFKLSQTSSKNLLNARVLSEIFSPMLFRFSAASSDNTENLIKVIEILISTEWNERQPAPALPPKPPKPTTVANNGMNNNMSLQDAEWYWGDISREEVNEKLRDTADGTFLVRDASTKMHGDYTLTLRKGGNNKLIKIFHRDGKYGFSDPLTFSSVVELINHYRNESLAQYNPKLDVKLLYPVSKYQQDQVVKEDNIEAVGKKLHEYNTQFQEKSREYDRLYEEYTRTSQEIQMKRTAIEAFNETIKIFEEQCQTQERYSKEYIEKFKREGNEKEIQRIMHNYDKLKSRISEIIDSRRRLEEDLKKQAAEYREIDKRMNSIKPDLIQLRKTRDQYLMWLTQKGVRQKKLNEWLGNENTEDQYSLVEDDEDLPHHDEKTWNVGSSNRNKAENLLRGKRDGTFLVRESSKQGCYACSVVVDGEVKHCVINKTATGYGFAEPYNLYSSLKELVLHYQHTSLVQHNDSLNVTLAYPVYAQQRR
# Test: Inhibition of PI3Kδ efficacy assay (ADP-Glo kinase assay)
# Format: biochemical
# Condition Summary: Table 4; read-out: PI3Kδ inhibitory activity (IC50)
Measured Attribute: IC50 (nM)
Enter your answer as a number in nM; do not include the unit.

Consider the worked cases shown below.
Suppose we examine the compound COc1ncc(-c2ccc3ncnc(N4CC5CCC(C4)N5C(=O)/C=C/C(C)=O)c3c2)cc1NS(=O)(=O)c1sc(C)nc1C [Example 176] ; what IC50 value has been reported?
13.9

Entry COc1ncc(-c2ccc3ncnc(N4CCN(C(=O)/C=C/C(C)=O)CC4)c3n2)cc1NS(=O)(=O)c1c(F)cncc1F [Example 210] : reported IC50 = ?
5.9

Which IC50 reading was recorded for the compound COc1ncc(-c2ccc3ncnc(N4CCN(C(=O)/C=C/C(C)=O)CC4)c3n2)cc1NS(=O)(=O)c1c(F)cccc1Cl [Example 225] ?
8.9

Others:
Item COc1ncc(-c2ccc3ncnc(C4CCN(C(=O)/C=C/C(C)=O)CC4)c3n2)cc1NS(=O)(=O)c1c(F)cc(F)cc1F [Example 231] has what recorded IC50?
16.1
